Cited source for all entries: patent US20260125382A1

- targetOrSystem: CDK9 (Homo sapiens)
- Construct: endogenous in cells; host or cells: MDA-MB-231
- assayNotes: CDK protein degradation activity (Western blotting), CDK9
- Assay type: cell-based
- conditionDescription: MDA-MB-231 cells, 0.1 μM, 16 hours, Western blot
valueType: Enzyme degradation CDK9 (% remaining) @ 0.1 μM (%)

Example results:
molecule: O=C1CCC(c2cccc(OCC(=O)N3CCC4(CC(N5CCN(c6ccc(Nc7ncnc8c7ncn8[C@H]7C[C@@H](NC(=O)Cc8ccccc8)C7)cc6)CC5)C4)C3)c2)C(=O)N1 (stereo partly shown) [Compound 269]
scaleUnit: %
quantitativeReadout: 30

molecule: O=C1CCC(N2C(=O)c3ccc(N4CCN(CCCN5CCN(c6ccc(Nc7ncnc8c7ncn8[C@H]7C[C@@H](NC(=O)Cc8ccccc8)C7)cc6)CC5)CC4)cc3C2=O)C(=O)N1 (stereo partly shown) [Compound 239]
scaleUnit: %
quantitativeReadout: 70

molecule: Cc1cccc(C(=O)N[C@H]2C[C@@H](n3cnc4c(NCc5cccc(N6CCN(CC7CCN(C(=O)COc8cccc9c8C(=O)N(C8CCC(=O)NC8=O)C9=O)CC7)CC6)c5)ncnc43)C2)n1 (stereo partly shown) [Compound 132]
scaleUnit: %
quantitativeReadout: 70

molecule: O=C1CC[C@H](N2C(=O)c3ccc(NCC(=O)N4CCC5(CC(N6CCN(c7ccc(Nc8ncnc9c8ncn9[C@H]8C[C@@H](NC(=O)Cc9ccccc9)C8)cc7)CC6)C5)C4)cc3C2=O)C(=O)N1 (stereo partly shown) [Compound 265]
scaleUnit: %
quantitativeReadout: 10

molecule: O=C1CC[C@H](N2C(=O)c3ccc(N4CCC(C(=O)N5CCN(CCC6CCN(c7ccc(Nc8ncnc9c8ncn9[C@H]8C[C@@H](NC(=O)Cc9ccccc9)C8)cc7)CC6)CC5)CC4)cc3C2=O)C(=O)N1 [Compound 363]
scaleUnit: %
quantitativeReadout: 40

molecule: O=C1CCC(N2C(=O)c3cc(F)c(N4CCC(CN5CCC(CCNc6ncnc7c6ncn7[C@H]6C[C@@H](NC(=O)Cc7ccccc7)C6)CC5)CC4)cc3C2=O)C(=O)N1 (stereo partly shown) [Compound 409]
scaleUnit: %
quantitativeReadout: 70

(P) O=C1CC[C@@H](c2ccc(OCC(=O)N3CC(N4CCC5(CC4)CC(N4CCN(c6ccc(Nc7ncnc8c7ncn8[C@H]7C[C@@H](NC(=O)Cc8ccccc8)C7)cc6)CC4)C5)C3)cc2)C(=O)N1 [Compound 273]
(Q) Cc1cccc(C(=O)NC2CC(n3cnc4c(Nc5ccc(N6CCN(CC7CCN(C(=O)CNc8ccc9c(c8)C(=O)N([C@H]8CCC(=O)NC8=O)C9=O)CC7)CC6)cc5)ncnc43)C2)n1 (stereo partly shown) [Compound 92]
(R) Cc1cccc(C(=O)N[C@H]2C[C@@H](n3cnc4c(NC5CCN(CCC6CCN(C(=O)CNc7cccc8c7C(=O)N(C7CCC(=O)NC7=O)C8=O)CC6)CC5)ncnc43)C2)n1 (stereo partly shown) [Compound 34]
Endpoint returns the given molecules ordered by ascending Enzyme degradation CDK9 (% remaining) @ 0.1 μM. API: response body holds the labels in the requested order.
R, Q, P

* * *

- targetOrSystem: CDK9 (Homo sapiens, UniProt P50750)
- Construct: endogenous in cells; host or cells: MDA-MB-231
- Sequence (P50750 whole entry): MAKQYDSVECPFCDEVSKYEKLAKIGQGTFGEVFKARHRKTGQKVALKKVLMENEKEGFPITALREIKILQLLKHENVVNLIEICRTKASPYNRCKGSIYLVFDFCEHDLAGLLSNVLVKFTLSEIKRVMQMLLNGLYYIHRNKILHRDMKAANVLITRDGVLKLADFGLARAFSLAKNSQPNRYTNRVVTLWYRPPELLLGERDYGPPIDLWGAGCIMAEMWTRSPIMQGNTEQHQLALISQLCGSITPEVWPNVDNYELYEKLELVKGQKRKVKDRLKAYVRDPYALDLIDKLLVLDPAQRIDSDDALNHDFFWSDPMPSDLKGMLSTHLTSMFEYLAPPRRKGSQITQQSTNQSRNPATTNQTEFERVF
- assayNotes: CDK protein degradation activity (Western blotting), CDK9
- Format: cell-based
- conditionDescription: MDA-MB-231 cells, 0.1 μM, 16 hours, Western blot
valueType: Enzyme degradation CDK9 (% remaining) @ 0.1 μM (%)

Example results:
compound: Cc1cccc(C(=O)NC2CC(n3cnc4c(NCc5cccc(N6CCN(c7cccc8c7C(=O)N([C@H]7CCC(=O)NC7=O)C8=O)CC6)c5)ncnc43)C2)n1 (stereo partly shown)
targetOrSystem: CDK9 (Homo sapiens, UniProt P50750)
scaleUnit: %
quantitativeReadout: 80
--
compound: O=C1CC[C@H](N2C(=O)c3cccc(OCC(=O)N4CCC(CN5CCC(CNc6ncnc7c6ncn7C6CC(NC(=O)Cc7ccccc7)C6)CC5)CC4)c3C2=O)C(=O)N1 (stereo partly shown)
targetOrSystem: CDK9 (Homo sapiens, UniProt P50750)
scaleUnit: %
quantitativeReadout: 20

(A) CC(=O)N[C@H]1C[C@@H](n2cnc3c(NCC4CCN(CC5CCN(C(=O)COc6ccc7c(c6)C(=O)N([C@H]6CCC(=O)NC6=O)C7=O)CC5)CC4)ncnc32)C1
(B) Cc1cccc(C(=O)N[C@H]2C[C@H](n3cnc4c(NCC5CCN(CC6CCN(C(=O)CNc7cccc8c7C(=O)N(C7CCC(=O)NC7=O)C8=O)CC6)CC5)ncnc43)C2)n1 (stereo partly shown)
(C) O=C1CC[C@H](N2C(=O)c3cccc(NCC(=O)N4CCN(CC5CCN(c6ccc(Nc7ncnc8c7ncn8[C@H]7C[C@@H](NC(=O)Cc8ccccc8)C7)cc6)CC5)CC4)c3C2=O)C(=O)N1
Please list the entries, largest Enzyme degradation CDK9 (% remaining) @ 0.1 μM first. API: response body holds the labels in the requested order.
A, C, B

* * *

- targetOrSystem: CDK9 (Homo sapiens)
- Construct: endogenous in cells; host or cells: MDA-MB-231
- assayNotes: CDK protein degradation activity (Western blotting), CDK9
- Type: cell-based
- conditionDescription: MDA-MB-231 cells, 10 μM, 16 hours, Western blot
valueType: Enzyme degradation CDK9 (% remaining) @ 10 μM (%)

compound: O=C1CC[C@H](N2C(=O)c3cccc(OCC(=O)N4CCC(CC(=O)N5CCN(c6ccc(Nc7ncnc8c7ncn8C7CC(NC(=O)Cc8ccccc8)C7)cc6)CC5)CC4)c3C2=O)C(=O)N1 (some centres unmarked)
quantitativeReadout: 20
--
compound: O=C1CC[C@@H](c2cccc(OCC(=O)N3CCN(CCCN4CCN(c5ccc(Nc6ncnc7c6ncn7C6CC(NC(=O)Cc7ccccc7)C6)cc5)CC4)CC3)c2)C(=O)N1 (some centres unmarked)
quantitativeReadout: 0
--
compound: Cc1cccc(C(=O)N[C@H]2C[C@@H](n3cnc4c(NC5CCN(CCC6CCN(c7ccc8c(c7)C(=O)N([C@H]7CCC(=O)NC7=O)C8=O)CC6)CC5)ncnc43)C2)n1
quantitativeReadout: 10
--
compound: O=C1CC[C@H](N2C(=O)c3ccc(NCC(=O)N4CCN(CCCN5CCN(c6ccc(Nc7ncnc8c7ncn8C7CC(NC(=O)Cc8ccccc8)C7)cc6)CC5)CC4)cc3C2=O)C(=O)N1 (some centres unmarked)
quantitativeReadout: 0
--
compound: O=C1CC[C@@H](c2cccc(OCC(=O)N3CCC(OCCN4CCN(c5ccc(Nc6ncnc7c6ncn7C6CC(NC(=O)Cc7ccccc7)C6)cc5)CC4)CC3)c2)C(=O)N1 (some centres unmarked)
quantitativeReadout: 0

(P) Cc1cccc(C(=O)N[C@H]2C[C@@H](n3cnc4c(NCc5ccc(OCCCN6CCN(c7cccc8c7C(=O)N([C@H]7CCC(=O)NC7=O)C8=O)CC6)cc5)ncnc43)C2)n1
(Q) O=C1CC[C@H](N2C(=O)C=C(Nc3cccc(CC(=O)N4CCC(CN5CCN(c6ccc(Nc7ncnc8c7ncn8C7CC(NC(=O)Cc8ccccc8)C7)cc6)CC5)CC4)c3)C2=O)C(=O)N1 (some centres unmarked)
(R) O=C1CC[C@H](N2C(=O)c3cccc(N4CCC(CCCN5CCN(c6ccc(Nc7ncnc8c7ncn8[C@H]7C[C@@H](NC(=O)Cc8ccccc8)C7)cc6)CC5)CC4)c3C2=O)C(=O)N1
(S) Cc1cccc(C(=O)NC2CC(n3cnc4c(NCc5cccc(N6CCN(C(=O)COc7cccc8c7C(=O)N([C@H]7CCC(=O)NC7=O)C8=O)CC6)c5)ncnc43)C2)n1 (some centres unmarked)
Please list the entries, largest Enzyme degradation CDK9 (% remaining) @ 10 μM first. API: response body holds the labels in the requested order.
S, R, Q, P
(S: 100%, R: 20%, Q: 10%, P: 0%)

* * *

- targetOrSystem: CDK2 (Homo sapiens, UniProt P24941)
- Construct: endogenous in cells; host or cells: MDA-MB-231
- assayNotes: CDK protein degradation activity (Western blotting), CDK2
- Type: cell-based
- conditionDescription: MDA-MB-231 cells, 10 μM, 16 hours, Western blot
valueType: Enzyme degradation CDK2 (% remaining) @ 10 μM (%)

Example results:
compound: O=C1CC[C@H](N2C(=O)c3ccc(N4CCC(CC(=O)N5CCN(c6ccc(Nc7ncnc8c7ncn8[C@H]7C[C@@H](NC(=O)Cc8ccccc8)C7)cc6)CC5)CC4)cc3C2=O)C(=O)N1
quantitativeReadout: 50
--
compound: O=C1CC[C@H](N2C(=O)c3cccc(N4CC(N5CCC6(CC5)CC(N5CCN(c7ccc(Nc8ncnc9c8ncn9[C@H]8C[C@@H](NC(=O)Cc9ccccc9)C8)cc7)CC5)C6)C4)c3C2=O)C(=O)N1
quantitativeReadout: 30
--
compound: Cc1cccc(C(=O)N[C@H]2C[C@@H](n3cnc4c(Nc5ccc(N6CCN(C(=O)CNc7cccc8c7C(=O)N([C@H]7CCC(=O)NC7=O)C8=O)CC6)cc5)ncnc43)C2)n1
quantitativeReadout: 50

(A) O=C1CC[C@H](N2C(=O)c3cccc(OCC(=O)N4CCC(OCCN5CCN(c6ccc(Nc7ncnc8c7ncn8C7CC(NC(=O)Cc8ccccc8)C7)cc6)CC5)CC4)c3C2=O)C(=O)N1 (stereo partly shown)
(B) O=C1CC[C@H](N2C(=O)c3cccc(N4CCC(CCCN5CCN(c6ccc(Nc7ncnc8c7ncn8[C@H]7C[C@@H](NC(=O)Cc8ccccc8)C7)cc6)CC5)CC4)c3C2=O)C(=O)N1
(C) Cc1cccc(C(=O)N[C@H]2C[C@@H](n3cnc4c(NCc5ccc(OCC6CCN(C(=O)CNc7cccc8c7C(=O)N([C@H]7CCC(=O)NC7=O)C8=O)CC6)cc5)ncnc43)C2)n1
(D) O=C1CCC(N2C(=O)c3cc(F)c(N4CCC(N5CCN(c6ccc(Nc7ncnc8c7ncn8[C@H]7C[C@@H](NC(=O)Cc8ccccc8)C7)cc6)CC5)CC4)cc3C2=O)C(=O)N1 (stereo partly shown)
Endpoint returns the given compounds ordered by ascending Enzyme degradation CDK2 (% remaining) @ 10 μM. API: response body holds the labels in the requested order.
D, A, C, B

(I) O=C1CC[C@H](N2C(=O)c3ccc(N4CCC(C(=O)N5CCC6(CC5)CC(N5CCN(c7ccc(Nc8ncnc9c8ncn9C8CC(NC(=O)Cc9ccccc9)C8)cc7)CC5)C6)CC4)cc3C2=O)C(=O)N1 (stereo partly shown)
(II) O=C1CC[C@@H](c2ccc(OCC(=O)N3CCC(CCN4CCN(c5ccc(Nc6ncnc7c6ncn7C6CC(NC(=O)Cc7ccccc7)C6)cc5)CC4)CC3)cc2)C(=O)N1 (stereo partly shown)
Field: lower recorded Enzyme degradation CDK2 (% remaining) @ 10 μM (choose I or II ) Reply with the label of the item you choose.
I

(A) Cc1cccc(C(=O)NC2CC(n3cnc4c(Nc5ccc(N6CCN(C(=O)COc7cccc8c7C(=O)N([C@H]7CCC(=O)NC7=O)C8=O)CC6)cc5)ncnc43)C2)n1 (stereo partly shown)
(B) Cc1cccc(C(=O)NC2CC(n3cnc4c(Nc5ccc(N6CCN(C(=O)COc7ccc8c(c7)C(=O)N([C@H]7CCC(=O)NC7=O)C8=O)CC6)cc5)ncnc43)C2)n1 (stereo partly shown)
Field: lower recorded Enzyme degradation CDK2 (% remaining) @ 10 μM (choose A or B ) Reply with the label of the item you choose.
B
